pIC50: −log10 of the molar value.
Multiple publications report pIC50 for Macrophage colony-stimulating factor 1 receptor (Homo sapiens); what follows is a combined list.

>  <COMPOUND>
Clc1cnc2[nH]cc(Cc3cnc(NC4CCC4)nc3)c2c1

>  <pIC50>
> 6.00

$$$$
>  <COMPOUND>
CCCS(=O)(=O)Nc1ccc(F)c(C(=O)c2c[nH]c3ncc(-c4ccc(F)c(OC)c4)cc23)c1F

>  <pIC50>
≥ 5.00

$$$$
>  <COMPOUND>
Cc1ccc(S(=O)(=O)NCc2c[nH]c3nccc(-c4cccc(C#N)c4)c23)cc1

>  <pIC50>
≥ 5.00

$$$$
>  <COMPOUND>
CCCS(=O)(=O)Nc1ccc(F)c(C(=O)c2c[nH]c3ncc(-c4ccccc4Cl)cc23)c1F

>  <pIC50>
≥ 5.00

$$$$
>  <COMPOUND>
O=C(c1c(F)ccc(NS(=O)(=O)c2cc(F)ccc2F)c1F)c1c[nH]c2ncc(Cl)cc12

>  <pIC50>
≥ 5.00

$$$$
>  <COMPOUND>
CC(C)(C)OC(=O)[C@H]1CC(NC(=O)Cn2cc(-c3cnc(N)c(NCc4c(Cl)cccc4Cl)n3)cn2)CCN1 (stereo partly shown)

>  <pIC50>
6.52 to 7.00

$$$$
>  <COMPOUND>
CCCS(=O)(=O)Nc1ccc(F)c(C(=O)c2c[nH]c3ncc(OCC)cc23)c1F

>  <pIC50>
≥ 5.00

$$$$
>  <COMPOUND>
Fc1nc(NCc2cccnc2OCC(F)(F)F)ccc1Cc1c[nH]c2ncncc12

>  <pIC50>
≥ 5.00

$$$$
>  <COMPOUND>
O=C(Nc1ccc(C(F)(F)F)cc1)Nc1cccc(C(=O)c2c[nH]c3ncc(-c4cccnc4)cc23)c1

>  <pIC50>
≥ 5.00

$$$$
>  <COMPOUND>
N#Cc1cc2cnc(Nc3ccc4c(c3)CCNC4)nc2n(-c2c(F)cccc2F)c1=O

>  <pIC50>
7.89

$$$$
>  <COMPOUND>
COc1ccc(COc2ccc(Cc3c[nH]c4ncccc34)cc2OC)cc1

>  <pIC50>
≥ 5.00

$$$$
>  <COMPOUND>
COc1cccc(C(=O)c2c[nH]c3ncc(-c4ccccc4)cc23)c1F

>  <pIC50>
≥ 5.00

$$$$
>  <COMPOUND>
CN1CCc2ccc(Nc3ncc4cc(C#N)c(=O)n(C5CCCC5)c4n3)cc2C1

>  <pIC50>
8.28

$$$$
>  <COMPOUND>
CC(C)(C)OC(=O)N(Cc1ccc(Cl)cc1)c1ccc(C(=O)c2c[nH]c3ncccc23)cn1

>  <pIC50>
≥ 5.00

$$$$
>  <COMPOUND>
CN1CCC(c2ccc(-c3cc(Oc4ccc(NC(=O)N5CCC6(CCC(F)(F)CC6)C5=O)nc4)ccn3)cc2)CC1

>  <pIC50>
8.17

$$$$
>  <COMPOUND>
O=C(c1c(F)ccc(NS(=O)(=O)c2ccc3nsnc3c2)c1F)c1c[nH]c2ncc(Cl)cc12

>  <pIC50>
≥ 5.00

$$$$

====

Study the reported IC50 values for Macrophage colony-stimulating factor 1 receptor (Homo sapiens, UniProt P07333) given below; they originate from different publications.

>  <MOLECULE>
Cc1cnc(-c2cnc3[nH]cc(C(=O)c4c(F)ccc(NS(=O)(=O)c5cccc(OC(F)F)c5)c4F)c3c2)[nH]1

>  <IC50>
≤ 10 µM

$$$$
>  <MOLECULE>
COc1cc2c(Oc3ccc(NC(=O)C4(C(=O)Nc5ccc(F)cc5)CC4)cc3)ccnc2cc1OC(=O)N1CC[C@H](O)C1

>  <IC50>
0.1 to 1 µM

$$$$
>  <MOLECULE>
O=C(Nc1ccc(C(=O)c2c[nH]c3ncccc23)cc1)Nc1cccc(C(F)(F)F)c1

>  <IC50>
≤ 10 µM

$$$$
>  <MOLECULE>
FC1(F)CCC(Nc2ncc(Cc3c[nH]c4ncc(Cl)cc34)cn2)CC1

>  <IC50>
< 0.01 µM

$$$$
>  <MOLECULE>
NC(=O)c1cccc(-c2cnc3[nH]cc(C(=O)c4cc(O)ccc4F)c3c2)c1

>  <IC50>
≤ 10 µM

$$$$
>  <MOLECULE>
Clc1ccc(Nc2c[nH]c3ncccc23)cc1

>  <IC50>
≤ 10 µM

$$$$
>  <MOLECULE>
CN(C)CC1Cc2ccc(Nc3ncc4cc(C#N)c(=O)n(C5CCCC5)c4n3)cc2C(=O)N1 (centres unmarked)

>  <IC50>
< 0.001 µM

$$$$
>  <MOLECULE>
CS(=O)(=O)Nc1ccc(F)c(C(=O)c2c[nH]c3ncc(Br)cc23)c1

>  <IC50>
≤ 10 µM

$$$$
>  <MOLECULE>
C[C@@H](Oc1cc(-c2cnn(C)c2)cnc1N)c1cccc(NC(=O)c2cccc([S+](C)[O-])c2)c1 (some centres unmarked)

>  <IC50>
≤ 0.05 µM

$$$$
>  <MOLECULE>
O=C(O)/C=C/c1cccc(-c2cnc3[nH]cc(C(=O)c4cccc(C(F)(F)F)c4)c3c2)c1

>  <IC50>
≤ 10 µM

$$$$
>  <MOLECULE>
CCC1(C)CCN(C(=O)Nc2ccc(Oc3ccnc(-c4cnn(C)c4)c3)c(C)n2)C1=O (centres unmarked)

>  <IC50>
0.0199 µM

$$$$
>  <MOLECULE>
Clc1ccc(COc2ccc(Cl)c(Cc3c[nH]c4ncccc34)c2Cl)cc1

>  <IC50>
≤ 10 µM

$$$$
>  <MOLECULE>
Oc1ccc(F)c(Cc2c[nH]c3ncc(-c4cccnc4)cc23)c1F

>  <IC50>
≤ 10 µM

$$$$
>  <MOLECULE>
Cc1nc(NC(=O)N2CCC(C)(C)C2=O)ccc1Oc1ccnc(-c2cnn(CCO)c2)c1

>  <IC50>
0.0563 µM

$$$$
>  <MOLECULE>
Cn1cc(-c2cnc3[nH]cc(C(=O)c4cc(NS(=O)(=O)C5CC5)ccc4F)c3c2)cn1

>  <IC50>
≤ 10 µM

$$$$
>  <MOLECULE>
CCCCS(=O)(=O)Nc1cccc(C(=O)c2c[nH]c3ncc(Cl)cc23)c1

>  <IC50>
≤ 10 µM

$$$$
>  <MOLECULE>
O=C(c1ccc(O)cc1Cl)c1c[nH]c2ncccc12

>  <IC50>
≤ 10 µM

$$$$
>  <MOLECULE>
COc1ncc(F)cc1CNc1ccc(Cc2c[nH]c3ncnc(OC)c23)c(F)n1

>  <IC50>
≤ 10 µM

$$$$
>  <MOLECULE>
NC(=O)c1cccc(-c2cnc3[nH]cc(Cc4ccccc4O)c3c2)c1

>  <IC50>
≤ 10 µM

$$$$
>  <MOLECULE>
CCCCNC(=O)n1ccc2c(C(=O)c3c[nH]c4ncc(Br)cc34)cccc21

>  <IC50>
≤ 10 µM

$$$$
>  <MOLECULE>
O=C(O)/C=C/c1cccc(-c2cnc3[nH]cc(C(=O)c4ccccc4F)c3c2)c1

>  <IC50>
≤ 10 µM

$$$$
>  <MOLECULE>
CN(C)CC(=O)N1CCc2cc(Nc3ncc4cc(C#N)c(=O)n(C5CCCC5)c4n3)ccc2C1

>  <IC50>
0.007 µM

$$$$
>  <MOLECULE>
COc1ccc(NC(=O)Nc2cccc(C(=O)c3c[nH]c4ncccc34)c2)cc1

>  <IC50>
≤ 10 µM

$$$$
>  <MOLECULE>
CCNC(=O)COc1ccc(F)c(Cc2c[nH]c3ncc(-c4cccnc4)cc23)c1F

>  <IC50>
≤ 10 µM

$$$$
>  <MOLECULE>
CC(=O)Nc1cccc(-c2cnc3[nH]cc(C(=O)c4cc(O)ccc4F)c3c2)c1

>  <IC50>
≤ 10 µM

$$$$
>  <MOLECULE>
Cc1nc(-c2cnc3n(c2=O)CCCN3C)ccc1Cc1c[nH]c2ncccc12

>  <IC50>
0.0552 µM

$$$$
>  <MOLECULE>
C[C@@H](Oc1cc(-c2cnn(C)c2)cnc1N)c1cccc(NC(=O)c2cccc(C3CC3)c2)c1

>  <IC50>
≤ 0.05 µM

$$$$
>  <MOLECULE>
CCn1cc(Nc2ccc(Cc3c[nH]c4ncnc(OC)c34)c(F)n2)cn1

>  <IC50>
< 0.01 µM

$$$$
>  <MOLECULE>
O=C(c1c(F)ccc(NS(=O)(=O)c2cc(F)ccc2F)c1F)c1c[nH]c2nccc(Cl)c12

>  <IC50>
≤ 10 µM

$$$$
>  <MOLECULE>
CCS(=O)(=O)N1CCC(Nc2ncc3cc(C#N)c(=O)n(C4CCCC4)c3n2)CC1

>  <IC50>
0.49 µM

$$$$
>  <MOLECULE>
COCCOc1ncnc2[nH]cc(Cc3ccc(Nc4ccc(C)nc4)nc3F)c12

>  <IC50>
< 0.1 µM

$$$$
>  <MOLECULE>
NS(=O)(=O)c1cccc(Nc2c[nH]c3ncccc23)c1

>  <IC50>
≤ 10 µM

$$$$
